Measurement Notes: PK studies of formulations, plasma by HPLC-MS/MS
Assay type: in vivo
Condition Context: bovine, plasma, sc, 1.25 mg/kg, Form A50 (NMP, propylene glycol, water), Cattle, 1.25 mg/kg, read-out: Cmax
Procedure: The following formulations were prepared and administered to animals. Blood samples were collected at pre-defined time points and the amount of compound present in plasma at the time of sampling was determined by HPLC-MS/MS. Pharmacokinetic parameters were then calculated: Cmax, Tmax, Tlast, AUC. [table]
Result Type: Cmax (ng/mL)

> print(dat)
                         sample.smiles  result.type  observed.result
1  CCOc1cc(NCCNC(=O)/C=C/C(F)(F)F)ccn1         Cmax              127

###

Measurement Notes: PK studies of formulations, plasma by HPLC-MS/MS
Format: in vivo
Condition Context: bovine, plasma, sc, 1.5 mg/kg, pH 4.4, FormO100 (L-tartaric acid, NaOH up to pH 4.4, water), Cattle, 1.5 mg/kg, read-out: Cmax
Description: The following formulations were prepared and administered to animals. Blood samples were collected at pre-defined time points and the amount of compound present in plasma at the time of sampling was determined by HPLC-MS/MS. Pharmacokinetic parameters were then calculated: Cmax, Tmax, Tlast, AUC. [table]
Result Type: Cmax (ng/mL)

> print(dat)
                        sample.smiles  scale.unit  observed.result
1  COc1cc(NCCNC(=O)/C=C/C(C)(F)F)ccn1       ng/mL             1010

###

Measurement Notes: PK studies of formulations, plasma by HPLC-MS/MS
Type: in vivo
Condition Context: bovine, plasma, sc, 1.5 mg/kg, FormV100 (L-tartaric acid, propylene glycol 500 mg, benzylalcohol, water), Cattle, 1.5 mg/kg, read-out: Cmax
Result Type: Cmax (ng/mL)

> print(dat)
                        sample.smiles  scale.unit  observed.result
1  COc1cc(NCCNC(=O)/C=C/C(C)(F)F)ccn1       ng/mL              540

###

Measurement Notes: PK studies of formulations, plasma by HPLC-MS/MS
Type: in vivo
Condition Context: bovine, plasma, sc, 1.25 mg/kg, FormD62.5 (PEG 300, ethanol, Transcutol P), Cattle, 1.25 mg/kg, read-out: Tmax
Result Type: Tmax (min)

> print(dat)
                         sample.smiles  scale.unit  observed.result
1  CCOc1cc(NCCNC(=O)/C=C/C(F)(F)F)ccn1         min             55.2

###

Measurement Notes: PK studies of formulations, plasma by HPLC-MS/MS
Type: in vivo
Condition Context: bovine, plasma, sc, 1.25 mg/kg, FormG62.5 (benzyl alcohol, ethyl alcohol 96%, polyethylene glycol 300), Cattle, 1.25 mg/kg, read-out: AUC
Result Type: AUC (ng·h/mL)

> print(dat)
                         sample.smiles  result.type  observed.result
1  CCOc1cc(NCCNC(=O)/C=C/C(F)(F)F)ccn1          AUC             44.8

###

Measurement Notes: PK studies of formulations, plasma by HPLC-MS/MS
Format: in vivo
Condition Context: bovine, plasma, sc, 0.75 mg/kg, pH 4.4, FormO50 (L-tartaric acid, NaOH up to pH 4.4, water), Cattle, 0.75 mg/kg, read-out: AUC
Result Type: AUC (ng·h/mL)

> print(dat)
                        sample.smiles  result.type  observed.result
1  COc1cc(NCCNC(=O)/C=C/C(C)(F)F)ccn1          AUC              616

###

Measurement Notes: PK studies of formulations, plasma by HPLC-MS/MS
Type: in vivo
Condition Context: bovine, plasma, sc, 10 mg/kg, pH 4.4, FormO50 (L-tartaric acid, NaOH up to pH 4.4, water), Cattle, 10 mg/kg, read-out: AUC
Result Type: AUC

> print(dat)
                        sample.smiles  result.type  observed.result
1  COc1cc(NCCNC(=O)/C=C/C(C)(F)F)ccn1          AUC    18800 ng·h/mL

###

Measurement Notes: Quantitative determination of solubility of compound 5 (UPLC)
Format: physicochemical
Condition Context: aqueous acid solution (350 mM ethanesulfonic acid in water), 25 °C, aqueous buffer, thermodynamic from solid, Ethanesulfonic acid 350 mM in water, read-out: Solubility T = 1 Day
Result Type: solubility at 1 day (mg/mL)

> print(dat)
                                   compound  observed.result
1  COc1cc(NCCNC(=O)/C=C/C(C)(F)F)ccn1 [Compound 5]              155

###

Measurement Notes: Stability tests of solutions of compound 4 with equimolar acids in water
Assay type: physicochemical
Condition Context: water with equimolar acid, water, thermodynamic from solid, equimolar malonic acid in water
Result Type: solubility

> print(dat)
                         sample.smiles  result.type  observed.result
1  CCOc1cc(NCCNC(=O)/C=C/C(F)(F)F)ccn1   solubility       < 50 mg/mL

###

Measurement Notes: PK studies of formulations, plasma by HPLC-MS/MS
Type: in vivo
Condition Context: bovine, plasma; FormJ62.5 (DMSO, 2-pyrrolidone, ethyl lactate), SC, Cattle, 1.25 mg/kg; read-out: AUC
Result Type: AUC (ng·h/mL)

> print(dat)
                         sample.smiles  result.type  observed.result
1  CCOc1cc(NCCNC(=O)/C=C/C(F)(F)F)ccn1          AUC             99.6

###

Measurement Notes: Stability tests of solutions of compound 4 with equimolar acids in water
Type: physicochemical
Condition Context: water with equimolar acid, pH 1.23, water, thermodynamic from solid, equimolar Ethanesulfonic acid in water
Procedure: Equimolar amounts of compound 4 and acids were diluted with water: Water was added until all residues were dissolved. 200, 100 and 50 mg of compound 4 was used, each amount was combined with each acid of the following list. The solutions were equilibrated at room temperature and then held for 7 days at room temperature and thereafter 7 days at 8° C.
Result Type: solubility

> print(dat)
                         sample.smiles  observed.result
1  CCOc1cc(NCCNC(=O)/C=C/C(F)(F)F)ccn1      > 200 mg/mL

###

Measurement Notes: PK studies of formulations, plasma by HPLC-MS/MS
Type: in vivo
Condition Context: bovine, plasma, sc, 1.25 mg/kg, pH 4.4, Form O62.5 (FormO type: L-tartaric acid, NaOH to pH 4.4, water), Cattle, 1.25 mg/kg, read-out: Cmax
Result Type: Cmax (µg/mL)

> print(dat)
                         sample.smiles  result.type  observed.result
1  CCOc1cc(NCCNC(=O)/C=C/C(F)(F)F)ccn1         Cmax              0.3

###

Measurement Notes: PK studies of formulations, plasma by HPLC-MS/MS
Format: in vivo
Condition Context: bovine, plasma, sc, 10 mg/kg, pH 4.4, FormO50 (L-tartaric acid, NaOH up to pH 4.4, water), Cattle, 10 mg/kg, read-out: Tmax
Result Type: Tmax (min)

> print(dat)
                        sample.smiles  result.type  observed.result
1  COc1cc(NCCNC(=O)/C=C/C(C)(F)F)ccn1         Tmax               36

###

Measurement Notes: PK studies of formulations, plasma by HPLC-MS/MS
Type: in vivo
Condition Context: bovine, plasma, sc, 1.5 mg/kg, FormW100 (L-tartaric acid, propylene glycol 300 mg, benzylalcohol, water), Cattle, 1.5 mg/kg, read-out: AUC
Result Type: AUC (ng·h/mL)

> print(dat)
                        sample.smiles  observed.result
1  COc1cc(NCCNC(=O)/C=C/C(C)(F)F)ccn1             1520

###

Measurement Notes: Stability tests of solutions of compound 4 with equimolar acids in water
Format: physicochemical
Condition Context: water with equimolar acid, water, thermodynamic from solid, equimolar Tartaric acid in water
Result Type: solubility

> print(dat)
                                   compound  observed.result
1  CCOc1cc(NCCNC(=O)/C=C/C(F)(F)F)ccn1 [Compound 4]      > 200 mg/mL

###

Measurement Notes: Quantitative determination of solubility of compound 5 (UPLC)
Format: physicochemical
Condition Context: aqueous acid solution (350 mM tartaric acid in water), 25 °C, aqueous buffer, thermodynamic from solid, Tartaric acid 350 mM in water, read-out: Solubility T = 3 Days
Result Type: solubility at 3 days

> print(dat)
                        sample.smiles           result.type  observed.result
1  COc1cc(NCCNC(=O)/C=C/C(C)(F)F)ccn1  solubility at 3 days        162 mg/mL
